System: Streptococcus pyogenes SSI-9
Experiment: Antibacterial activity assay of bead-derived peptides (three concentrations)
Type: cell-based
Parameters: key: +++: inhibition by the 640-fold diluted peptide solution; ++: inhibition by the 160-fold diluted solution; +: inhibition by the 40-fold diluted solution; -: no inhibition
Conditions: S. pyogenes, bead-derived peptide solution, three concentrations
Where a SMILES comes first, the peptide text is derived from it. [ ]: non-standard residue; d: D form. The star is where a group is joined. NHCH2CH2OH = OCCN*; For = O=C*
assay.readout: antibacterial activity

compound	assay.readout	val
CC(C)C[C@@H](NC(=O)[C@H](Cc1c[nH]c2ccccc12)NC(=O)[C@H](NC(=O)[C@@H](NC(=O)[C@H](NC(=O)[C@H](C)NC(=O)[C@H](NC(=O)[C@H](C)NC(=O)CNC(=O)[C@@H](NC=O)C(C)C)C(C)C)C(C)C)C(C)C)C(C)C)C(=O)N[C@@H](Cc1c[nH]c2ccccc12)C(=O)N[C@H](CC(C)C)C(=O)N[C@@H](Cc1c[nH]c2ccccc12)C(=O)N[C@@H](C(=O)N[C@@H](Cc1c[nH]c2ccccc12)C(=O)NCCO)[C@H](C)O [compound 4603] (For-VGA[dV]A[dV]V[dV]W[dL]W[dL]W[dT]W-NHCH2CH2OH)	antibacterial activity	++
CNC(=O)C[C@@H](NC(=O)[C@H](Cc1c[nH]c2ccccc12)NC(=O)[C@@H](CC(C)C)NC(=O)[C@H](Cc1c[nH]c2ccccc12)NC(=O)[C@H](NC(=O)[C@H](Cc1c[nH]c2ccccc12)NC(=O)[C@@H](CC(C)C)NC(=O)[C@@H](NC(=O)[C@H](NC(=O)[C@H](C)NC(=O)[C@H](NC(=O)[C@H](C)NC(=O)CNC(=O)[C@@H](NC=O)C(C)C)C(C)C)C(C)C)C(C)C)C(C)C)C(=O)N[C@@H](Cc1c[nH]c2ccccc12)C(=O)NCCO [compound 5538] (For-VGA[dV]A[dV]V[dL]W[dV]W[dL]W[dD](NHMe)W-NHCH2CH2OH)	antibacterial activity	-

* * *

Tested on: P388 mouse leukemia cells
Details: 92 h
Where a SMILES comes first, the peptide text is derived from it. [ ]: non-standard residue; d: D form. The star is where a group is joined. NHCH2CH2OH = OCCN*; For = O=C*
The label is label 1 for cell viability/% below 90% and label 0 for cell viability/% equal to or exceeding 90%.

molecule	label.class
CNC(=O)C[C@@H](NC(=O)[C@@H](NC(=O)[C@@H](CC(C)C)NC(=O)[C@H](C)NC(=O)[C@@H](CC(C)C)NC(=O)[C@H](C)NC(=O)CNC(=O)[C@@H](NC=O)C(C)C)C(C)C)C(=O)N[C@@H](Cc1c[nH]c2ccccc12)C(=O)N[C@@H](C(=O)N[C@@H](Cc1c[nH]c2ccccc12)C(=O)N[C@@H](C(=O)N[C@@H](Cc1c[nH]c2ccccc12)C(=O)N[C@H](CC(C)C)C(=O)N[C@@H](Cc1c[nH]c2ccccc12)C(=O)NCCO)C(C)C)C(C)C [compound 11228] (For-VGA[dL]A[dL]V[dD](NHMe)W[dV]W[dV]W[dL]W-NHCH2CH2OH)	label 1
CC(C)C[C@@H](NC(=O)[C@H](Cc1c[nH]c2ccccc12)NC(=O)[C@H](NC(=O)[C@H](Cc1c[nH]c2ccccc12)NC(=O)[C@H](NC(=O)[C@@H](NC(=O)[C@H](NC(=O)[C@H](C)NC(=O)[C@H](NC(=O)[C@H](C)NC(=O)CNC(=O)[C@@H](NC=O)C(C)C)C(C)C)C(C)C)C(C)C)C(C)C)C(C)C)C(=O)N[C@@H](Cc1c[nH]c2ccccc12)C(=O)N[C@@H](C(=O)N[C@@H](Cc1c[nH]c2ccccc12)C(=O)NCCO)C(C)C [compound 5678] (For-VGA[dV]A[dV]V[dV]W[dV]W[dL]W[dV]W-NHCH2CH2OH)	label 0
CC(C)C[C@@H](NC(=O)[C@H](C)NC(=O)CNC(=O)[C@@H](NC=O)C(C)C)C(=O)N[C@@H](C)C(=O)N[C@H](CC(C)C)C(=O)N[C@H](C(=O)N[C@H](CC(C)C)C(=O)N[C@@H](Cc1c[nH]c2ccccc12)C(=O)N[C@@H](C(=O)N[C@@H](Cc1c[nH]c2ccccc12)C(=O)N[C@@H](C(=O)N[C@@H](Cc1c[nH]c2ccccc12)C(=O)N[C@H](CC(C)C)C(=O)N[C@@H](Cc1c[nH]c2ccccc12)C(=O)NCCO)C(C)C)[C@H](C)O)C(C)C [compound 10442] (For-VGA[dL]A[dL]V[dL]W[dT]W[dV]W[dL]W-NHCH2CH2OH)	label 0
CC(C)C[C@@H](NC(=O)[C@H](C)NC(=O)[C@H](NC(=O)[C@H](C)NC(=O)CNC(=O)[C@@H](NC=O)C(C)C)C(C)C)C(=O)N[C@H](C(=O)N[C@@H](C(=O)N[C@@H](Cc1c[nH]c2ccccc12)C(=O)N[C@H](CC(C)C)C(=O)N[C@@H](Cc1c[nH]c2ccccc12)C(=O)N[C@@H](C(=O)N[C@@H](Cc1c[nH]c2ccccc12)C(=O)N[C@H](CC(C)C)C(=O)N[C@@H](Cc1c[nH]c2ccccc12)C(=O)NCCO)C(C)C)C(C)C)C(C)C [compound 10261] (For-VGA[dV]A[dL]V[dV]W[dL]W[dV]W[dL]W-NHCH2CH2OH)	label 1
CC(C)C[C@@H](NC(=O)[C@H](C)NC(=O)[C@H](NC(=O)[C@H](C)NC(=O)CNC(=O)[C@@H](NC=O)C(C)C)C(C)C)C(=O)N[C@H](C(=O)N[C@@H](C(=O)N[C@@H](Cc1c[nH]c2ccccc12)C(=O)N[C@H](CC(C)C)C(=O)N[C@@H](Cc1c[nH]c2ccccc12)C(=O)N[C@H](CC(C)C)C(=O)N[C@@H](Cc1c[nH]c2ccccc12)C(=O)N[C@H](CC(C)C)C(=O)N[C@@H](Cc1c[nH]c2ccccc12)C(=O)NCCO)C(C)C)C(C)C [compound 9897] (For-VGA[dV]A[dL]V[dV]W[dL]W[dL]W[dL]W-NHCH2CH2OH)	label 1
CC(C)C[C@@H](NC(=O)[C@H](C)NC(=O)[C@H](NC(=O)[C@H](C)NC(=O)CNC(=O)[C@@H](NC=O)C(C)C)C(C)C)C(=O)N[C@H](C(=O)N[C@@H](C(=O)N[C@@H](Cc1c[nH]c2ccccc12)C(=O)N[C@@H](C(=O)N[C@@H](Cc1c[nH]c2ccccc12)C(=O)N[C@H](CC(C)C)C(=O)N[C@@H](Cc1c[nH]c2ccccc12)C(=O)N[C@@H](C(=O)N[C@@H](Cc1c[nH]c2ccccc12)C(=O)NCCO)[C@H](C)O)C(C)C)C(C)C)C(C)C [compound 8731] (For-VGA[dV]A[dL]V[dV]W[dV]W[dL]W[dT]W-NHCH2CH2OH)	label 1
CNC(=O)C[C@@H](NC(=O)[C@@H](NC(=O)[C@@H](CC(C)C)NC(=O)[C@H](C)NC(=O)[C@H](NC(=O)[C@H](C)NC(=O)CNC(=O)[C@@H](NC=O)C(C)C)C(C)C)C(C)C)C(=O)N[C@@H](Cc1c[nH]c2ccccc12)C(=O)N[C@@H](C(=O)N[C@@H](Cc1c[nH]c2ccccc12)C(=O)N[C@@H](C(=O)N[C@@H](Cc1c[nH]c2ccccc12)C(=O)N[C@@H](C(=O)N[C@@H](Cc1c[nH]c2ccccc12)C(=O)NCCO)C(C)C)C(C)C)C(C)C [compound 8662] (For-VGA[dV]A[dL]V[dD](NHMe)W[dV]W[dV]W[dV]W-NHCH2CH2OH)	label 1
CC(C)C[C@@H](NC(=O)[C@H](Cc1c[nH]c2ccccc12)NC(=O)[C@H](NC(=O)[C@H](Cc1c[nH]c2ccccc12)NC(=O)[C@H](NC(=O)[C@@H](NC(=O)[C@H](NC(=O)[C@H](C)NC(=O)[C@H](NC(=O)[C@H](C)NC(=O)CNC(=O)[C@@H](NC=O)C(C)C)C(C)C)C(C)C)C(C)C)C(C)C)C(C)C)C(=O)N[C@@H](Cc1c[nH]c2ccccc12)C(=O)N[C@@H](C(=O)N[C@@H](Cc1c[nH]c2ccccc12)C(=O)NCCO)C(C)C [compound 676] (For-VGA[dV]A[dV]V[dV]W[dV]W[dL]W[dV]W-NHCH2CH2OH)	label 0

* * *

System: Streptococcus pyogenes SSI-9
Settings: S. pyogenes
Where a SMILES comes first, the peptide text is derived from it. [ ]: non-standard residue; d: D form. The star is where a group is joined. NHCH2CH2OH = OCCN*; For = O=C*
assay.readout: antibacterial activity/MIC (µg/mL)

molecule	assay.readout	val
CC(C)C[C@@H](NC(=O)[C@H](C)NC(=O)CNC(=O)[C@@H](NC=O)C(C)C)C(=O)N[C@@H](C)C(=O)N[C@@H](C(=O)N[C@H](C(=O)N[C@@H](C(=O)N[C@@H](Cc1c[nH]c2ccccc12)C(=O)N[C@H](CC(C)C)C(=O)N[C@@H](Cc1c[nH]c2ccccc12)C(=O)N[C@H](CC(C)C)C(=O)N[C@@H](Cc1c[nH]c2ccccc12)C(=O)N[C@H](CC(C)C)C(=O)N[C@@H](Cc1c[nH]c2ccccc12)C(=O)NCCO)C(C)C)C(C)C)C(C)C [compound 1, Gramicidin A] (For-VGA[dL]A[dV]V[dV]W[dL]W[dL]W[dL]W-NHCH2CH2OH)	antibacterial activity/MIC	0.063

Data origin: paper PMC7531004
